# Assay target: SARS-CoV-2 M^pro (Severe acute respiratory syndrome coronavirus 2, UniProt P0DTD1)
# Assay comment: biochemical
# Type: biochemical
# Measurement setup: fitted in the kinetics experiment with this inhibitor; error = SEM

| Compound string | kcat (turnover number) / s⁻¹ |
| --- | --- |
| COc1cc(-c2ccc(/N=N/c3ccc4c(S(=O)(=O)O)cc(S(=O)(=O)O)c(N)c4c3O)c(OC)c2)ccc1/N=N/c1ccc2c(S(=O)(=O)O)cc(S(=O)(=O)O)c(N)c2c1O | 0.013 |
| Cc1cc(-c2ccc(/N=N/c3ccc4c(S(=O)(=O)O)cc(S(=O)(=O)O)c(N)c4c3O)c(C)c2)ccc1/N=N/c1ccc2c(S(=O)(=O)O)cc(S(=O)(=O)O)c(N)c2c1O | 0.010 |

Cited source: paper PMC7537881
